Experimental Target: αvβ3 (Homo sapiens, UniProt P05106+P06756)
Sequence (P06756 31-889 limits assumed): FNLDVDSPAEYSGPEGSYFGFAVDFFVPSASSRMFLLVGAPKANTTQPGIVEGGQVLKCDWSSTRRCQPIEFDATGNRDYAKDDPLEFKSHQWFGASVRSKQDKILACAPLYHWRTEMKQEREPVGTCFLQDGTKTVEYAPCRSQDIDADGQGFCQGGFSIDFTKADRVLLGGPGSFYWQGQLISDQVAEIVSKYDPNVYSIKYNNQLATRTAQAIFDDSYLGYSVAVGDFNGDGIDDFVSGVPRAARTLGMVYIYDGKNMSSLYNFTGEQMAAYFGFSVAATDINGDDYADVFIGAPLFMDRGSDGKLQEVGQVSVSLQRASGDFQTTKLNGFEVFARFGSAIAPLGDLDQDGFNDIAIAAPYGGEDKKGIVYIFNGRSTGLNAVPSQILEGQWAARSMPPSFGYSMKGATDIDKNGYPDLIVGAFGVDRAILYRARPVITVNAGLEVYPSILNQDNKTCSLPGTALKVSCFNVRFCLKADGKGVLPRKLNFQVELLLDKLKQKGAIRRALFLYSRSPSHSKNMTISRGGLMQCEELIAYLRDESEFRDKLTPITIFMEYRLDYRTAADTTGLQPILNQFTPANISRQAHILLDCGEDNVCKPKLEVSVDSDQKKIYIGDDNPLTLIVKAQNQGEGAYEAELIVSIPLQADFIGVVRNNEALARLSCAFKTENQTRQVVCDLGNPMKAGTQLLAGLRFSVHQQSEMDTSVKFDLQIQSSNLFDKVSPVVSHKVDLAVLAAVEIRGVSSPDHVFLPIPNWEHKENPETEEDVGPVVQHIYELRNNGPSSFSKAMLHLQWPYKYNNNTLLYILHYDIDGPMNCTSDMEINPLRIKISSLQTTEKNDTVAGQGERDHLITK
Sequence (P06756 891-1048 limits assumed): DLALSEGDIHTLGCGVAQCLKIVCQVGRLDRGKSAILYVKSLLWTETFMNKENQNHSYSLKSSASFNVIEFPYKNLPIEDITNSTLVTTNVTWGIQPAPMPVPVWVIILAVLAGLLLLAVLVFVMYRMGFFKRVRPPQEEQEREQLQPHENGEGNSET
Sequence (P05106 27-788): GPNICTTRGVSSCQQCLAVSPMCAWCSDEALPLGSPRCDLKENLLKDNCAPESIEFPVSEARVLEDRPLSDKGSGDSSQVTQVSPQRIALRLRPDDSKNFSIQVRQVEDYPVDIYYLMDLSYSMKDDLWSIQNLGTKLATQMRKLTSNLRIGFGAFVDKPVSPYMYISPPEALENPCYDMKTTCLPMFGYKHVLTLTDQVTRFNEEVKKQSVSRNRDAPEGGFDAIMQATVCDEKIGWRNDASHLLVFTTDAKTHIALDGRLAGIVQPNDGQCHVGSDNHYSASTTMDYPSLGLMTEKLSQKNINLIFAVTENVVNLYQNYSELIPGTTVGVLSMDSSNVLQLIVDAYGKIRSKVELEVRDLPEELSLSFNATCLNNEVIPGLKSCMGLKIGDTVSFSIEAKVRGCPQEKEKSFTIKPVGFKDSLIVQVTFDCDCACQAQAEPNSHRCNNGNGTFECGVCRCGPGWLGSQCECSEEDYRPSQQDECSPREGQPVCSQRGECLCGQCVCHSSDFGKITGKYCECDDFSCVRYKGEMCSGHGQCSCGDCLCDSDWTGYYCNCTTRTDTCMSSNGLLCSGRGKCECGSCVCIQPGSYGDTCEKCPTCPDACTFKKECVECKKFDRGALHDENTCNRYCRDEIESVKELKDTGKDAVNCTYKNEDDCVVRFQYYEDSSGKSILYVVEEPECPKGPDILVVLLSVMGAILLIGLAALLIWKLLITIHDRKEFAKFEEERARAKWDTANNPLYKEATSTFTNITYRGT
Assay Remarks: Solid-phase assay: biotinylated-fibrinogen binding to immobilized αvβ3
Parameters: placental αvβ3; from tissue; host or cells: placenta
Experimental Context: αIIbβ3 vs αvβ3 solid phase IC50
Where a name gives a salt, the structure may show the parent alone.
Metric: Selectivity

P. Cc1cc(C)c(S(=O)(=O)N[C@@H](CNC(=O)c2ccc(/C=C/CNC(=N)N)s2)C(=O)O)c(C)c1
Q. Cc1cc(C)c(S(=O)(=O)N[C@@H](CNC(=O)c2ccc(-c3cccc(CNC(=N)N)c3)s2)C(=O)O)c(C)c1 [Compound F-2, trifluoroacetic acid salt]
R. N=C(N)NCc1cccc(-c2ccc(C(=O)NC[C@H](NS(=O)(=O)c3ccccc3)C(=O)O)s2)c1 [Compound E-2, trifluoroacetic acid salt]
S. Cc1cc(C)c(S(=O)(=O)N[C@@H](CNC(=O)c2ccc(-c3cccc(NC(=N)N)c3)s2)C(=O)O)c(C)c1 [Compound M-3, (trifluoroacetic acid salt)]
Ascending sort, Selectivity. Please reply with the labels ordered as requested. Many thanks.
Q, R, S, P
